Target: human 4F2hc-LAT1 (Homo sapiens, UniProt Q01650)
Construct: Strep-tag (N); made in house; host or cells: Pichia pastoris strain KM71H
Sequence (Q01650 whole entry): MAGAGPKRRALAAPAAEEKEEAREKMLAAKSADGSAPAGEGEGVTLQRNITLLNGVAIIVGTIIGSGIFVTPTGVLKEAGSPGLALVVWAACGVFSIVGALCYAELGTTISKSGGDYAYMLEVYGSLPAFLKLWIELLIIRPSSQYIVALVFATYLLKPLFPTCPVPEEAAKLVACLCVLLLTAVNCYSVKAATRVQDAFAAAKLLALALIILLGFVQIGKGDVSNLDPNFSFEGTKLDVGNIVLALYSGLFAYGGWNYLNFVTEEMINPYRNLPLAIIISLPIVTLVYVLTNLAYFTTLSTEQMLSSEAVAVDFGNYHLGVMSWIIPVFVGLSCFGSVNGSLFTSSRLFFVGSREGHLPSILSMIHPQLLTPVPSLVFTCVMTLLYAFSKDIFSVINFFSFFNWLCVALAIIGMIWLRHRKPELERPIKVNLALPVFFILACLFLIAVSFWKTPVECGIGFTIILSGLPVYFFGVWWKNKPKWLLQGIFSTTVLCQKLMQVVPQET
Sequence (P08195 102-630 partner): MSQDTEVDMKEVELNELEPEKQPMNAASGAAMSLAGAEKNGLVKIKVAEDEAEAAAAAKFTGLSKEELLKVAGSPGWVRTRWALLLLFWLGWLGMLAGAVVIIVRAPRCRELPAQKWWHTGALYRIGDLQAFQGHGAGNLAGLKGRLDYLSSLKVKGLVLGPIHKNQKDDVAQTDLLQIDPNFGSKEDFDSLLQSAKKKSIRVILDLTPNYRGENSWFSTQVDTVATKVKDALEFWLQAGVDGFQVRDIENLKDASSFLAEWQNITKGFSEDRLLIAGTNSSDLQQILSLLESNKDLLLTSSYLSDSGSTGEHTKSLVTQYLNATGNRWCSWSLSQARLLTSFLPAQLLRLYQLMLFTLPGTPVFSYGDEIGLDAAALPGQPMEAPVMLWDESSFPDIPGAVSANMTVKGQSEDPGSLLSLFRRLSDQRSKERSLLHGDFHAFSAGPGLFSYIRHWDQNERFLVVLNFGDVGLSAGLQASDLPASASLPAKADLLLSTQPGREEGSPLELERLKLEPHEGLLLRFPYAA
Test: Scintillation proximity radioligand binding assay (SPA), [3H]L-leucine competition on purified protein
Details: competitor 250 µM
recorded_metric: binding / inhibition of [3H]L-leucine binding to 4F2hc-LAT1, in words

# structure_as_smiles, val
records = [
    ("CN[C@@H](Cc1c[nH]cn1)C(=O)O", "no significant binding"),
    ("COC(=O)[C@@H](N)CC(C)C", "no significant binding"),
    ("CN[C@@H](CC(C)C)C(=O)O", "no significant binding"),
    ("N[C@@H](Cc1c[nH]cn1)C(=O)O", "inhibited strongly"),
    ("CC(C)C[C@H](N)C(=O)O", "inhibited strongly"),
]

Returns the measured binding / inhibition of [3H]L-leucine binding to 4F2hc-LAT1, in words for the input compound. Input: COC(=O)[C@@H](N)Cc1c[nH]cn1
no significant binding

---

Molecular target: human 4F2hc-LAT1 (Homo sapiens)
Construct: Strep-tag (N); made in house; host or cells: Pichia pastoris strain KM71H
Assay: Scintillation proximity radioligand binding assay (SPA), [3H]L-leucine competition on purified protein
Details: Figure 1; competitor 250 µM; normalized to control without competitor; mean of three experiments
Give T when the value for Binding of [3H]L-Leucine (%), residual radioligand binding is at least 40%. Give F when it is less.

Is Binding of [3H]L-Leucine (%), residual radioligand binding at least 40%? Consider CC(C)C[C@@H](N)C(=O)O
T

Is Binding of [3H]L-Leucine (%), residual radioligand binding at least 40%? Consider N[C@@H](CC(=O)O)C(=O)O
T

Is Binding of [3H]L-Leucine (%), residual radioligand binding at least 40%? Consider N[C@@H](CCC(=O)O)C(=O)O
T

Is Binding of [3H]L-Leucine (%), residual radioligand binding at least 40%? Consider N[C@@H](CS)C(=O)O
F

Is Binding of [3H]L-Leucine (%), residual radioligand binding at least 40%? Consider NC(=O)CC[C@H](N)C(=O)O
F

Is Binding of [3H]L-Leucine (%), residual radioligand binding at least 40%? Consider CSCC[C@H](N)C(=O)O
F

Is Binding of [3H]L-Leucine (%), residual radioligand binding at least 40%? Consider NCCCC[C@H](N)C(=O)O
T

Is Binding of [3H]L-Leucine (%), residual radioligand binding at least 40%? Consider N[C@@H](Cc1c[nH]c2ccccc12)C(=O)O
F

Is Binding of [3H]L-Leucine (%), residual radioligand binding at least 40%? Consider C[C@H](N)C(=O)O
F

Is Binding of [3H]L-Leucine (%), residual radioligand binding at least 40%? Consider C[C@@H](O)[C@H](N)C(=O)O
F

---

Molecular target: human 4F2hc-LAT1 (Homo sapiens, UniProt Q01650)
Construct: Strep-tag (N)
Experiment: Scintillation proximity radioligand binding assay (SPA), [3H]L-leucine competition on purified protein
Settings: homologous competition with [3H]L-leucine; Figure 2A
recorded_metric: Kd (µM)
Lab book: enter the figure in µM, no units written.

Returns the measured Kd for the input compound. Input: CC(C)C[C@H](N)C(=O)O
26

---

Target: human 4F2hc-LAT1 (Homo sapiens, UniProt Q01650)
Construct: Strep-tag (N); made in house; host or cells: Pichia pastoris strain KM71H
Assay: Scintillation proximity radioligand binding assay (SPA), [3H]L-leucine competition on purified protein
recorded_metric: Ki (µM)
Lab book: enter the figure in µM, no units written.

Returns the measured Ki for the input compound. Input: NC(Cc1cc(I)c(Oc2cc(I)c(O)c(I)c2)c(I)c1)C(=O)O (stereo not shown) [T4, thyroxine]
10

---

Target: human 4F2hc-LAT1 (Homo sapiens, UniProt Q01650)
Construct: Strep-tag (N); made in house; host or cells: Pichia pastoris strain KM71H
Assay: Scintillation proximity radioligand binding assay (SPA), [3H]L-leucine competition on purified protein
Conditions: Figure 3, L-leucine analogues; competitor 250 µM; normalized to control without competitor
recorded_metric: Binding of [3H]L-Leucine (%), residual radioligand binding (RRB)
Lab book: enter the figure in %, no units written.

Returns the measured Binding of [3H]L-Leucine (%), residual radioligand binding (RRB) for the input molecule. Input: CN[C@@H](CC(C)C)C(=O)O [N-Methyl-L-Leucine, N-methyl-L-leucine]
103

Returns the measured Binding of [3H]L-Leucine (%), residual radioligand binding (RRB) for the input molecule. Input: CC[C@H](C)[C@H](N)C(=O)O [L-Isoleucine, L-isoleucine]
28

Returns the measured Binding of [3H]L-Leucine (%), residual radioligand binding (RRB) for the input molecule. Input: CC(C)[C@H](N)C(=O)O [L-Valine, L-valine]
27

Returns the measured Binding of [3H]L-Leucine (%), residual radioligand binding (RRB) for the input molecule. Input: CCCC[C@H](N)C(=O)O [L-Norleucine, L-norleucine]
62

Returns the measured Binding of [3H]L-Leucine (%), residual radioligand binding (RRB) for the input molecule. Input: CC(C)(C)C[C@H](N)C(=O)O [L-Neopentylglycine, L-neopentyl glycine]
43

Returns the measured Binding of [3H]L-Leucine (%), residual radioligand binding (RRB) for the input molecule. Input: COC(=O)[C@@H](N)CC(C)C [L-Leucine-Methyl Ester, L-leucine-methyl ester]
106

Returns the measured Binding of [3H]L-Leucine (%), residual radioligand binding (RRB) for the input molecule. Input: CC(C)(C)[C@H](N)C(=O)O [L-tert-Leucine, L-tert-leucine]
37

Returns the measured Binding of [3H]L-Leucine (%), residual radioligand binding (RRB) for the input molecule. Input: CCC[C@H](N)C(=O)O [L-Norvaline, L-norvaline]
32

Returns the measured Binding of [3H]L-Leucine (%), residual radioligand binding (RRB) for the input molecule. Input: CC(C)C[C@H](N)C(=O)O [L-Leucine, L-leucine]
1

Returns the measured Binding of [3H]L-Leucine (%), residual radioligand binding (RRB) for the input molecule. Input: CC[C@H](N)C(=O)O [L-2-Aminobutyric Acid, L-2-aminobutyric acid]
45

---

Molecular target: human 4F2hc-LAT1 (Homo sapiens, UniProt Q01650)
Construct: Strep-tag (N); made in house; host or cells: Pichia pastoris strain KM71H
Test: Scintillation proximity radioligand binding assay (SPA), [3H]L-leucine competition on purified protein
Conditions: Figure 1; competitor 250 µM; normalized to control without competitor; mean of three experiments
Give Met when the value for Binding of [3H]L-Leucine (%), residual radioligand binding is at least 30%. Give Not met when it is less.

Is Binding of [3H]L-Leucine (%), residual radioligand binding at least 30%? Consider NC(=O)C[C@H](N)C(=O)O [Asn]
Met

Is Binding of [3H]L-Leucine (%), residual radioligand binding at least 30%? Consider CC(C)C[C@H](N)C(=O)O [L-Leucine, L-leucine]
Not met

Is Binding of [3H]L-Leucine (%), residual radioligand binding at least 30%? Consider N[C@@H](CO)C(=O)O [Ser]
Met

Is Binding of [3H]L-Leucine (%), residual radioligand binding at least 30%? Consider N[C@@H](Cc1ccc(O)cc1)C(=O)O [Tyr, L-tyrosine]
Not met

Is Binding of [3H]L-Leucine (%), residual radioligand binding at least 30%? Consider N[C@@H](Cc1ccccc1)C(=O)O [Phe, L-phenylalanine]
Not met

Is Binding of [3H]L-Leucine (%), residual radioligand binding at least 30%? Consider N[C@@H](Cc1c[nH]cn1)C(=O)O [L-Histidine, L-histidine]
Not met

Is Binding of [3H]L-Leucine (%), residual radioligand binding at least 30%? Consider NCC(=O)O [Gly]
Met

Is Binding of [3H]L-Leucine (%), residual radioligand binding at least 30%? Consider N=C(N)NCCC[C@H](N)C(=O)O [Arg]
Met

---

Biological target: human 4F2hc-LAT1 (Homo sapiens, UniProt Q01650)
Construct: Strep-tag (N); made in house; host or cells: Pichia pastoris strain KM71H
Assay: Scintillation proximity radioligand binding assay (SPA), [3H]L-leucine competition on purified protein
Details: Figure 4, L-histidine analogues; competitor 250 µM; normalized to control without competitor
recorded_metric: Binding of [3H]L-Leucine (%), residual radioligand binding (RRB)
# answer = value followed by unit

Returns the measured Binding of [3H]L-Leucine (%), residual radioligand binding (RRB) for the input compound. Input: Cn1cncc1C[C@H](N)C(=O)O [3-Methyl L-Histidine, 3-methyl-L-histidine]
64%

Returns the measured Binding of [3H]L-Leucine (%), residual radioligand binding (RRB) for the input compound. Input: CN[C@@H](Cc1c[nH]cn1)C(=O)O [N-Methyl L-Histidine, N-methyl-L-histidine]
103%

Returns the measured Binding of [3H]L-Leucine (%), residual radioligand binding (RRB) for the input compound. Input: N[C@@H](Cc1c[nH]cn1)C(=O)O [L-Histidine, L-histidine]
1%

Returns the measured Binding of [3H]L-Leucine (%), residual radioligand binding (RRB) for the input compound. Input: Cn1cnc(C[C@H](N)C(=O)O)c1 [1-Methyl L-Histidine, 1-methyl-L-histidine]
59%

Returns the measured Binding of [3H]L-Leucine (%), residual radioligand binding (RRB) for the input compound. Input: COC(=O)[C@@H](N)Cc1c[nH]cn1 [L-Histidine Methyl Ester, L-histidine-methyl ester]
102%
